test system: fluid secretion caused by the enterotoxin(s) present in culture filtrate from an enteropathogenic strain of E. coli; experiment: animal or person; format: in vivo, infant mice; conditions: Mus musculus, po
OBSERVABLE: inhibition in vivo at 200 mg/kg

The cases that follow already have their inhibition in vivo at 200 mg/kg on record.
[[record]]
compound_structure = "Cc1cc(N)cc(C)c1N=C1NCCN1"
result = "69%"

[[record]]
compound_structure = "CN(C1=NCCN1)c1c(Cl)cc(N)cc1Cl"
result = "72%"

[[record]]
compound_structure = "CCNc1cc(Cl)c(NC2=NCCN2)c(Cl)c1"
result = "97%"

[[record]]
compound_structure = "NCc1cc(Cl)c(N=C2NCCN2)c(Cl)c1"
result = "39%"

[[record]]
compound_structure = "Nc1cc(Br)c(NC2=NCCN2)c(Br)c1"
result = "85%"


IN: Quick one: inhibition in vivo at 200 mg/kg for `CNC(=Nc1cc(Cl)c(NC2=NCCN2)c(Cl)c1)NC` ?
OUT: 53%

IN: Requested read-out: inhibition in vivo at 200 mg/kg. Entry: `CCN(CC)Cc1cc(Cl)c(N=C2NCCN2)c(Cl)c1`
OUT: 37%

###

system: fluid secretion caused by the enterotoxin(s) present in culture filtrate from an enteropathogenic strain of E. coli; assay: animal or person; type: in vivo, infant mice; conditions: Mus musculus, po
The reader will find reported inhibition in vivo at 50 mg/kg values listed item by item below.
Respond numerically; units are % and should not be typed.

[[record]]
compound = "Nc1cc(Br)c(NC2=NCCN2)c(Br)c1 [Example 12]"
units_label = "%"
numeric_readout = 65

[[record]]
compound = "Cc1cc(N)cc(C)c1N=C1NCCN1 [Example 13]"
units_label = "%"
numeric_readout = 54


Now consider the entry below.
IN: So what's the measured inhibition in vivo at 50 mg/kg for this one? CN(C1=NCCN1)c1c(Cl)cc(N)cc1Cl [R5 H, R6 CH3, Ra p-NH2, Rb o-Cl, R11 Cl]
OUT: 62
